test system: Yap1 mRNA; experiment: Antisense inhibition of human Yap1 in SNU-449 cells by modified oligonucleotides, single dose (Example 5, RTS36584); type: cell-based; settings: Table 52; Yap1 mRNA, modified oligonucleotides targeting SEQ ID NO: 1 and 2
Strand notation (5' to 3'): a small letter for the sugar, then the base; units joined by * are phosphorothioate-linked, units joined directly phosphodiester-linked; [ ] holds rarer units or linkages, { } end groups; capitals alone tell only the bases. k = constrained ethyl (cEt); [5mC] = 5-methylcytosine; d = 2'-deoxy (DNA); m = 2'-O-methyl
Measured YAP1 (% UT) by item
METRIC_NAME: YAP1 (% UT)

substance="1200858 (kA*kA*kG*dT*dG*mU*dA*dT*dG*dT*d[5mC]*dA*dG*kA*kA*kG; antisense) [Compound 1200858]" metric_name="YAP1 (% UT)" recorded_measurement=10
substance="1200845 (k[5mC]*kA*kA*d[5mC]*dT*mC*dT*dT*dA*dT*dA*dT*dG*kG*kT*kT; antisense) [Compound 1200845]" metric_name="YAP1 (% UT)" recorded_measurement=100
substance="1200873 (kT*kT*kA*dG*dA*mC*dT*dA*dA*dG*dT*dA*dA*kG*kG*kT; antisense) [Compound 1200873]" metric_name="YAP1 (% UT)" recorded_measurement=55
substance="1200820 (kG*kG*kA*dA*dG*mA*dT*d[5mC]*dT*dG*dA*dA*dA*k[5mC]*kT*k[5mC]; antisense) [Compound 1200820]" metric_name="YAP1 (% UT)" recorded_measurement=24
substance="1200857 (kA*kG*kT*dG*dT*mA*dT*dG*dT*d[5mC]*dA*dG*dA*kA*kG*kA; antisense) [Compound 1200857]" metric_name="YAP1 (% UT)" recorded_measurement=4
substance="1200849 (kA*kA*kT*dA*dT*mU*dG*d[5mC]*dA*dA*dT*d[5mC]*dT*kG*kT*k[5mC]; antisense) [Compound 1200849]" metric_name="YAP1 (% UT)" recorded_measurement=53
substance="1200850 (kT*kA*kA*dT*dA*mU*dT*dG*d[5mC]*dA*dA*dT*d[5mC]*kT*kG*kT; antisense) [Compound 1200850]" metric_name="YAP1 (% UT)" recorded_measurement=83
substance="1200863 (k[5mC]*kT*kT*dT*dA*mA*dA*dG*dT*dG*dT*dA*dT*kG*kT*k[5mC]; antisense) [Compound 1200863]" metric_name="YAP1 (% UT)" recorded_measurement=41
substance="1200844 (kA*kA*k[5mC]*dT*d[5mC]*mU*dT*dA*dT*dA*dT*dG*dG*kT*kT*kT; antisense) [Compound 1200844]" metric_name="YAP1 (% UT)" recorded_measurement=132
substance="1200814 (kA*k[5mC]*kT*dT*dT*mU*dA*d[5mC]*dA*dT*dT*dA*dG*kG*kA*kA; antisense) [Compound 1200814]" metric_name="YAP1 (% UT)" recorded_measurement=73
substance="1200834 (kA*kG*kA*dT*dT*mU*dA*dG*dG*dA*dT*dG*d[5mC]*kA*kT*kG; antisense) [Compound 1200834]" metric_name="YAP1 (% UT)" recorded_measurement=37
substance="1200853 (kA*kT*kG*dT*dA*mA*dT*dA*dT*dT*dG*d[5mC]*dA*kA*kT*k[5mC]; antisense) [Compound 1200853]" metric_name="YAP1 (% UT)" recorded_measurement=69
substance="1200818 (kA*kA*kG*d[5mC]*dA*mC*dT*dT*dT*dT*dA*d[5mC]*dA*kT*kT*kA; antisense) [Compound 1200818]" metric_name="YAP1 (% UT)" recorded_measurement=31
substance="1200809 (k[5mC]*kA*k[5mC]*dT*dG*mA*dG*dG*dT*dA*dT*dA*dA*k[5mC]*kT*kG; antisense) [Compound 1200809]" metric_name="YAP1 (% UT)" recorded_measurement=69
substance="1074461 (kG*kA*kA*dA*dT*dT*dG*dT*d[5mC]*dT*d[5mC]*dA*dT*kG*k[5mC]*k[5mC]) [Compound 1074461]" metric_name="YAP1 (% UT)" recorded_measurement=15
substance="1200841 (kT*k[5mC]*kT*dT*dA*mU*dA*dT*dG*dG*dT*dT*dT*kT*kG*kT; antisense) [Compound 1200841]" metric_name="YAP1 (% UT)" recorded_measurement=76
substance="1200859 (kA*kA*kA*dG*dT*mG*dT*dA*dT*dG*dT*d[5mC]*dA*kG*kA*kA; antisense) [Compound 1200859]" metric_name="YAP1 (% UT)" recorded_measurement=28
substance="1200837 (kA*kT*kT*d[5mC]*dA*mG*dA*dT*dT*dT*dA*dG*dG*kA*kT*kG; antisense) [Compound 1200837]" metric_name="YAP1 (% UT)" recorded_measurement=82
substance="1200789 (G_{ks}G_{ks}A_{ks}A_{ds}A_{ds}U_{ys}T_{ds}G_{ds}T_{ds}^{m}C_{ds}T_{ds}^{m}C_{ds}A_{ds}T_{ks}G_{ks}^{m}C_{k}; antisense; as printed in the source, key not given here) [Compound 1200789]" metric_name="YAP1 (% UT)" recorded_measurement=12
substance="1200811 (kT*kT*kA*d[5mC]*dA*mU*dT*dA*dG*dG*dA*dA*d[5mC]*kA*kA*kG; antisense) [Compound 1200811]" metric_name="YAP1 (% UT)" recorded_measurement=62
substance="1200805 (kG*kA*kG*dG*dT*mA*dT*dA*dA*d[5mC]*dT*dG*dG*kG*k[5mC]*kA; antisense) [Compound 1200805]" metric_name="YAP1 (% UT)" recorded_measurement=50
substance="958499 (kA*kT*kT*dA*dG*dA*dG*dT*dA*dT*dG*dT*dG*kG*k[5mC]*kA) [Compound 958499]" metric_name="YAP1 (% UT)" recorded_measurement=14
substance="1200836 (kT*k[5mC]*kA*dG*dA*mU*dT*dT*dA*dG*dG*dA*dT*kG*k[5mC]*kA; antisense) [Compound 1200836]" metric_name="YAP1 (% UT)" recorded_measurement=72
substance="1200855 (kT*kT*kT*dA*dT*mG*dT*dA*dA*dT*dA*dT*dT*kG*k[5mC]*kA; antisense) [Compound 1200855]" metric_name="YAP1 (% UT)" recorded_measurement=56
substance="1200866 (kA*kG*kT*dA*dA*mG*dG*dT*dT*dT*d[5mC]*d[5mC]*d[5mC]*kA*kG*kA; antisense) [Compound 1200866]" metric_name="YAP1 (% UT)" recorded_measurement=41
